Test system: HCC1954
assayName: Viability assay, BRCA1 WT cell line HCC1954
Format: cell-based
conditionLabel: Homo sapiens, HCC1954, viability, read-out: HCC1954 rel IC50
pIC50: −log10 of the molar value.
measuredQuantity: pIC50

Example molecules with recorded pIC50:
input: Hi! What's the reported pIC50 for `CN(C)c1ncccc1-c1ncc2c(n1)n(Cc1ccc(-c3nc(C(F)(F)F)cn3C)cc1)c(=N)n2C` on HCC1954?
output: ≤ 5.00

input: Query for HCC1954: what pIC50 does the record show for `Cn1cc(C(F)(F)F)nc1-c1ccc(Cn2c(=N)n(C)c3cnc(-c4ccccc4C4CC4)nc32)cc1` ?
output: 5.00 to 6.60

input: Give pIC50 (HCC1954) of the following molecule: `Cc1nc(-c2cccc(F)c2C(C)C)nc2c1n(C)c(=N)n2Cc1ccc(-c2nc(Cl)cn2C)cc1`
output: ≤ 5.00

input: Report pIC50 for `COCCn1cc(C(F)(F)F)nc1-c1ccc(Cn2c(=N)n(C)c3cnc(-c4ccccc4C(F)(F)F)nc32)cc1` tested on HCC1954.
output: ≤ 5.00

input: Identify the measured pIC50 of `Cn1cc(C(F)(F)F)nc1-c1ccc(Cn2c(=N)n(C)c3cnc(-c4cccnc4OC(F)(F)F)nc32)cc1` for HCC1954.
output: ≤ 5.00

New cases:
input: Field: pIC50 (HCC1954). Entry: `C=C(C)c1ccc(F)cc1-c1nc(C)c2c(n1)n(Cc1ccc(-c3nc(Cl)cn3C)cc1)c(=N)n2C`
output: 5.00 to 6.60

input: State its pIC50 on HCC1954: `Cn1cc(C(F)(F)F)nc1-c1ccc(Cn2c(=N)n(C)c3cnc(-c4c(OC(F)(F)F)ccnc4C4CC4)nc32)cc1`
output: ≤ 5.00

###

Below is a list of entries, each paired with its recorded pIC50 value.
Test system: HCC1954
assayName: Viability assay, BRCA1 WT cell line HCC1954
Assay type: cell-based
conditionLabel: Homo sapiens, HCC1954, viability, read-out: HCC1954 rel IC50
pIC50: −log10 of the molar value.

input: Value wanted: pIC50 (HCC1954) of entry `COc1ccn(-c2ccc(Cn3c(=N)n(C)c4cnc(-c5ccccc5C(C)C)nc43)cc2C)n1`
output: 5.00 to 6.60

input: Please tell me: pIC50 of `COc1nccc(C#N)c1-c1ncc2c(n1)n(Cc1ccc(-c3nc(C(F)(F)F)cn3C)cc1)c(=N)n2C` , system HCC1954?
output: ≤ 5.00

input: Write down the reported pIC50 of `Cn1cc(C(F)(F)F)nc1-c1ccc(Cn2c(=N)n(C)c3cnc(-c4cccc5c4OC(F)(F)O5)nc32)cc1` , test system: HCC1954.
output: 5.00 to 6.60

input: Kindly state the measured pIC50 obtained for `CC(C)c1ccccc1-c1ncc2c(n1)n(Cc1ccc(-c3nc(C(F)(F)F)cn3C)cc1F)c(=N)n2C` with HCC1954.
output: ≤ 5.00

input: Give the reported pIC50 for `CC(C)c1ccncc1-c1ncc2c(n1)n(Cc1ccc(-c3nc(C(F)(F)F)cn3C)cc1)c(=N)n2C` (system: HCC1954).
output: ≤ 5.00

input: Query for HCC1954: what pIC50 does the record show for `CCn1c(=N)n(Cc2ccc(-c3nc(C(F)(F)F)cn3C)cc2)c2nc(-c3ccccc3C(C)C)ncc21` ?
output: 5.00 to 6.60

input: Form field: pIC50 recorded for `COc1ncnc(C2CC2)c1-c1ncc2c(n1)n(Cc1ccc(-c3nc(C(F)(F)F)cn3C)cc1)c(=N)n2CC(F)F` with HCC1954 (enter value)
output: ≤ 5.00
